Values from paper PMC5540273

Tested on: LRRK2
EXPERIMENTAL CONTEXT: concentration: 1 μM, replicates: in singlicate; n = 1;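 further: KINOMEscan kinase panel screen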
READOUT: %Inh (%)
Numbers only; they are read as %.

Exercise: Entry COc1ccc(Nc2nccc(N3CCC(NS(=O)(=O)c4ccc(NC(C)=O)cc4)C3)n2)cc1 (centres unmarked) : reported %Inh = ?
Key: 28

Exercise: Entry COc1ccc(-n2cnc3c(N)ncnc32)cc1 : reported %Inh = ?
Key: 17

Exercise: Entry O=C1NC(=O)C(c2ccccc2)=C1Nc1cccc(O)c1 : reported %Inh = ?
Key: 0

Exercise: Entry COc1cccc(-n2cnc3c(N)ncnc32)c1 : reported %Inh = ?
Key: 63

Exercise: Entry CCc1nc(-c2cccc(C)c2)c(-c2ccncc2)s1 : reported %Inh = ?
Key: 0

Exercise: Entry CCS(=O)c1ccc(-c2coc3ccc(-c4nnc(C)o4)cc23)cc1 (centres unmarked) : reported %Inh = ?
Key: 5

Exercise: Entry COc1cc(Nc2ccnc3ccc(C(F)(F)F)cc23)cc(OC)c1OC : reported %Inh = ?
Key: 27

Exercise: Entry CCc1ccc(-c2ccc3c(c2)-c2nn(C)cc2S(=O)(=O)N3C)cc1 : reported %Inh = ?
Key: 0

Exercise: Entry Cl.c1ccc(Cn2cnc3cc(Nc4ncnc5ccccc45)ccc32)cc1 : reported %Inh = ?
Key: 0

Exercise: Entry O=C(Nc1n[nH]c2nc(-c3ccccc3)c(Cl)cc12)C1CC1 : reported %Inh = ?
Key: 0

Exercise: Entry CN1C(=O)C(Nc2cc(Cl)c(O)c(Cl)c2)=C(c2ccc(Cl)cc2)C1=O : reported %Inh = ?
Key: 0

Exercise: Entry Nc1nc(-c2ccccc2F)c(-c2ccnc3ccccc23)s1 : reported %Inh = ?
Key: 8

Exercise: Entry Cc1cccc(-c2cc(-c3c[nH]nc3-c3ccccn3)ccn2)c1 : reported %Inh = ?
Key: 10

Exercise: Entry CCC(=O)c1c(-c2ccccc2)c2cc(Cl)ccc2c(=O)n1Cc1ccc(C(=O)O)cc1 : reported %Inh = ?
Key: 0

Exercise: Entry COc1cccc(C2=C(N(C)c3ccccc3)C(=O)NC2=O)c1 : reported %Inh = ?
Key: 0

Exercise: Entry Nc1ncnc2c1ncn2-c1cccc2ccccc12 : reported %Inh = ?
Key: 4

Exercise: Entry CCn1c(-c2nonc2N)nc2ccccc21 : reported %Inh = ?
Key: 83

----------
Tested on: JAK2(JH1domain-catalytic)
EXPERIMENTAL CONTEXT: concentration: 1 μM, replicates: in singlicate; n = 1
READOUT: %Inh (%)
Numbers only; they are read as %.

Exercise: Entry CCn1c(-c2ccoc2)nc2cnccc21 : reported %Inh = ?
Key: 16

Exercise: Entry CCn1c(-c2nonc2N)nc2ccccc21 : reported %Inh = ?
Key: 0

Exercise: Entry Cc1c(Cn2c(C)nn3c(=O)cc(N4CCO[C@H](C)C4)nc23)cccc1C(F)(F)F : reported %Inh = ?
Key: 14

Exercise: Entry CCS(=O)(=O)c1ccc(OC)c(Nc2ncc(-c3ccc(F)cc3)o2)c1.Cl : reported %Inh = ?
Key: 8

----------
Tested on: p38-alpha
Construct: gene MAPK14
EXPERIMENTAL CONTEXT: concentration: 1 μM, replicates: in singlicate; n = 1
READOUT: %Inh (%)
Numbers only; they are read as %.

Exercise: Entry COc1cc2nccc(Nc3ccc(OCc4ccc(NC(C)=O)cc4)cc3)c2cc1OC.Cl : reported %Inh = ?
Key: 18

Exercise: Entry OCCCNc1nccc(-c2c(-c3cccc(C(F)(F)F)c3)nn3cc(C(F)(F)F)ccc23)n1 : reported %Inh = ?
Key: 99.4

Exercise: Entry Cc1c(Cn2c(C)nn3c(=O)cc(N4CCO[C@H](C)C4)nc23)cccc1C(F)(F)F : reported %Inh = ?
Key: 0

Exercise: Entry COc1cc(Nc2nccc(N3CCC(NC(=O)C4COc5ccccc5O4)C3)n2)cc(OC)c1OC (stereo not shown) : reported %Inh = ?
Key: 26

Exercise: Entry Nc1nccc2scc(-c3ccc4c(c3)CCN4C(=O)Cc3ccccc3)c12 : reported %Inh = ?
Key: 0

Exercise: Entry CCc1ccc(-c2ccc3c(c2)-c2nn(C)cc2S(=O)(=O)N3C)cc1 : reported %Inh = ?
Key: 0

Exercise: Entry COc1cccc(-n2cnc3c(N)ncnc32)c1 : reported %Inh = ?
Key: 0

Exercise: Entry Nc1n[nH]c2nnc(-c3ccccc3)c(-c3ccccc3)c12 : reported %Inh = ?
Key: 0

Exercise: Entry O=C(Nc1ccc2c(c1)OCO2)NC1CCN(c2ccnc(NCc3ccc(F)cc3)n2)CC1 : reported %Inh = ?
Key: 0

Exercise: Entry COc1cc2ncn(-c3cc(OCc4ccc(S(C)(=O)=O)cc4)c(C(N)=O)s3)c2cc1OC : reported %Inh = ?
Key: 1

Exercise: Entry Cc1ccccc1COc1cc(-n2cnc3cc(Cl)ccc32)sc1C(N)=O : reported %Inh = ?
Key: 0

Exercise: Entry COC(=O)c1c(-c2ccccc2)c2cc(Br)ccc2c(=O)n1Cc1ccc(S(C)(=O)=O)cc1 : reported %Inh = ?
Key: 17

Exercise: Entry Cc1nn2c(=O)cc(N3CCOCC3)nc2n1Cc1cccc(Cl)c1Cl : reported %Inh = ?
Key: 0

Exercise: Entry Nc1nc(N)c2nc(-c3ccccc3)[nH]c2n1 : reported %Inh = ?
Key: 0

Exercise: Entry COc1cc(OC)cc(-c2cc3cnc(N)nc3nc2NC(=O)NC(C)(C)C)c1 : reported %Inh = ?
Key: 6

Exercise: Entry Nc1ncnc2c1ncn2-c1ccc(Cl)cc1 : reported %Inh = ?
Key: 32
